// differentiation response lookup, one value per entry
# EXPERIMENT_SUMMARY: promoters of myeloid differentiation in arrested cells, primary screen, cell-based, GFP/MAC1 double positive, flow cytometry, validation set (AID 588685);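 note: compound exposure lasts four days before antibody staining and flow analysis; 0% = DMSO wells and 100% = 5 µM fulvestrant positive control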
# CONDITION_INFO: ER-HoxA9 marrow cells, stronger effect = higher value
PROPERTY_LABEL: differentiation response (%)

1) CCCC(C)(COC(N)=O)COC(=O)NC(C)C (stereo unspecified) : 44.3
2) OC(c1ccccc1)(c1ccccc1)C1CCNCC1 : 2.46
3) Cc1ccc2c(c1)C1CN(C)CCC1N2C(=O)Nc1cccc(Cl)c1 (stereo unspecified) : -18
4) CCn1ccnc1CN1CCCC(C(=O)c2cc(F)ccc2OC)C1 (stereo unspecified) : -8.8
5) CC/C(=C\C=C\[C@@H]1C=C[C@@H]2CCC[C@H]2[C@@H]1C(=O)c1ccc[nH]1)[C@@H]1O[C@@H]([C@@H](C)C(=O)O)CC[C@@H]1C : -4
6) CC12CN3CC(C)(CN(C1)C3c1cccs1)C2=O (stereo unspecified) : -7.57

====

// inhibition lookup, one value per entry
# TEST_SYSTEM: Botulinum neurotoxin type A (Clostridium botulinum) (UniProt P0DPI0)
# Sequence (P0DPI0 whole entry, looked up): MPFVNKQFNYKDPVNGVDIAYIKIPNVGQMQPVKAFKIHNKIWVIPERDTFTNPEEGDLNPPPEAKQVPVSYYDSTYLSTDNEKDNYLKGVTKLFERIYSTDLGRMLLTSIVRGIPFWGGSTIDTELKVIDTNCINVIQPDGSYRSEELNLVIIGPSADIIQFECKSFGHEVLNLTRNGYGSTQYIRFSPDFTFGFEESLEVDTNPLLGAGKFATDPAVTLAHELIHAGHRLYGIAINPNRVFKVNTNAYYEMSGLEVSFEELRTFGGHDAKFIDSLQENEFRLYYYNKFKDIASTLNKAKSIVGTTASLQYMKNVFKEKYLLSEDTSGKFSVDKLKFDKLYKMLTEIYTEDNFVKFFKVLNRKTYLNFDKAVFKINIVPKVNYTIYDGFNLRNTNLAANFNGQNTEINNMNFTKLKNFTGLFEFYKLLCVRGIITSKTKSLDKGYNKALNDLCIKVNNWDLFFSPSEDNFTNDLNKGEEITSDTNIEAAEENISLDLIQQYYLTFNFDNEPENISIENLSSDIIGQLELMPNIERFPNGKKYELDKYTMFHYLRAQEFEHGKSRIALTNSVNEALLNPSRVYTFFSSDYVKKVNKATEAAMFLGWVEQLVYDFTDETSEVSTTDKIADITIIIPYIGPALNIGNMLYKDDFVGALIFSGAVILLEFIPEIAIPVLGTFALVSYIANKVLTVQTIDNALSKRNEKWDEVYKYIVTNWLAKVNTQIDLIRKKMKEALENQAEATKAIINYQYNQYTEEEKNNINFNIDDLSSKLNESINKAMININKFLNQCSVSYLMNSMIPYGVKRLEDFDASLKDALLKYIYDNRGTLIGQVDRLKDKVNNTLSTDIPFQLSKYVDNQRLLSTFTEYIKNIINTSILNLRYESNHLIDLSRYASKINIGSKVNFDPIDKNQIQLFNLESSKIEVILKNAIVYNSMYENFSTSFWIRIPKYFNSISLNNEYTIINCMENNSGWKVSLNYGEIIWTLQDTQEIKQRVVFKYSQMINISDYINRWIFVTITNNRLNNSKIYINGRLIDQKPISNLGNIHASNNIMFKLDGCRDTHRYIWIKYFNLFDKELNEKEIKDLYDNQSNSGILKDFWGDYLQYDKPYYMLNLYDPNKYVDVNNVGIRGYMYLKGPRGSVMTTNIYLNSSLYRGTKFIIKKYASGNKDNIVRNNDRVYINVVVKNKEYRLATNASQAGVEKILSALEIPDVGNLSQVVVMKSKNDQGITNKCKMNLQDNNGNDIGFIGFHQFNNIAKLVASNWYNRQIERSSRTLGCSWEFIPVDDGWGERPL
# EXPERIMENT_SUMMARY: BoNT/A light chain protease inhibitors, biochemical, multiplex microsphere flow cytometry, validation set (AID 588460)
# CONDITION_INFO: at 10 µM, stronger effect = higher value
PROPERTY_LABEL: inhibition (%)

1) CC(C)Oc1ccc(C2CC(=O)N(c3ccc(C(=O)O)cc3)C2=O)cc1 (stereo not given) : -0.7
2) Nc1ccc(N)c(C(=O)O)c1 : -14
3) O=C(CCCn1c(=O)oc2ccccc21)N1CCN(c2ccc(F)cc2)CC1 : 0.2
4) O=C(CNC(=O)OCc1ccccc1)NC1CCCCCC1 : -1.8
5) CC(C)Oc1ccc2c(=O)c(-c3ccccc3)coc2c1 : 1.4
6) COC(=O)c1cc(-c2ccc(OC)c(OC)c2)on1 : 1.7
7) COc1ccc(C=O)c(OC)c1 : -0.5
8) CC(C(=O)O)c1ccc(-c2ccccc2)c(F)c1 (stereo not given) : 0.5
9) CCOC(=O)N1CCN(Cc2nc(Cc3cccc(F)c3)no2)CC1 : 0
10) O=C(NCCc1ccccc1)C1CCN(C2CCN(Cc3ccco3)CC2)CC1 : -0.7

====

// inhibition lookup, one value per entry
# Test system: Botulinum neurotoxin type F light chain protease (Clostridium botulinum)
# EXPERIMENT_SUMMARY: Botulinum neurotoxin type F light chain protease inhibition, multiplex microsphere flow cytometry, validation set (AID 588459)
# CONDITION_INFO: multiplex microsphere protease substrate cleavage assay, at 10 µM, stronger effect = higher value
Activity calls are given as the source filed them. How the calls were made is not given here.
PROPERTY_LABEL: inhibition

1. COc1ccc(/C=C2\CC/C(=C\c3ccc(OC)c(OC)c3)C2=O)cc1OC : 1.7% (inactive)
2. Cc1ccc2c(c1)C(C)(C)[C@]1(C)NC(=O)CCN21 : -1.8% (inactive)
3. NS(=O)(=O)c1cc2c(cc1C(F)(F)F)NC(Cc1ccccc1)NS2(=O)=O (centres undefined) : 2.4% (inactive)
4. CCOC(=O)C(=O)N1CCN(c2ccccc2OC)CC1 : 1.5% (inactive)
5. COc1ccc2[nH]cc(C3N4CC5(C)CN3CC(C)(C4)C5=O)c2c1 (centres undefined) : 3% (inactive)
6. COc1ccc(CCN=CC2=C(O)CC(C)(C)CC2=O)cc1 : 1.2% (inactive)
7. CNc1nc(Nc2ccccc2)nc(OCC(F)(F)F)n1 : 0.2% (inactive)
8. CC1(C)[C@@H](O)CC[C@]2(C)[C@H]3C(=O)C=C4[C@@H]5C[C@@](C)(C(=O)O)CC[C@]5(C)CC[C@@]4(C)[C@]3(C)CC[C@@H]12 : 4.4% (inactive)
9. O=C1c2ccccc2N2C(=O)c3ccccc3C2N1Cc1ccco1 (centres undefined) : 3.3% (inactive)

====

// inhibition lookup, one value per entry
# TEST_SYSTEM: Botulinum neurotoxin type A (Clostridium botulinum) (UniProt P0DPI0)
# EXPERIMENT_SUMMARY: BoNT/A light chain protease inhibitors, biochemical, multiplex microsphere flow cytometry, validation set (AID 588460)
# CONDITION_INFO: at 10 µM, stronger effect = higher value
PROPERTY_LABEL: inhibition (%)

1) CC(C)NC(C)C(=O)c1ccc2ccccc2c1 (stereo not drawn) : 2
2) C#CCN1C(=O)C(O)(c2c(C)[nH]c3ccccc23)c2ccccc21 (stereo not drawn) : 0.5
3) NCc1ccccc1COc1ccccc1 : 0.1

====

// inhibition lookup, one value per entry
# TEST_SYSTEM: Botulinum neurotoxin type A (Clostridium botulinum)
# EXPERIMENT_SUMMARY: BoNT/A light chain protease inhibitors, biochemical, multiplex microsphere flow cytometry, validation set (AID 588460)
# CONDITION_INFO: at 10 µM, stronger effect = higher value
The source made the active and inactive calls. How the calls were made is not given here.
PROPERTY_LABEL: inhibition

1) OC[C@H]1O[C@@H](n2cnc3c(NC4CCCC4)ncnc32)[C@H](O)[C@@H]1O : 0.2% (inactive)
2) CC(=O)O[C@H]1CSC[C@H]1NC(=O)c1ccccc1 : -1.2% (inactive)
3) CC1(C)NC(C(=O)O)Cc2c1[nH]c1ccccc21 (stereo not drawn) : 1% (inactive)
4) O=C(NCCN1CCOCC1)c1ccc(Cl)cc1 : 1.2% (inactive)
5) CSc1ccc(/C=N/N2CCN(Cc3ccc(C)cc3C)CC2)cc1 : -0.6% (inactive)
6) CCOc1ccc(CC2CCC(=O)NC2=O)cc1 (stereo not drawn) : -0.5% (inactive)
7) CC(C)(C)C(=O)NC(=S)Nc1sc2c(c1C(N)=O)CCC2 : 0.4% (inactive)
8) O=C(CCC(=O)c1cccs1)c1cccs1 : -1.4% (inactive)
9) Cc1c(Cc2ccccc2)c(=O)oc2c(CN(C)C)c(O)c(Cl)cc12 : -0.6% (inactive)
10) CCc1oc2ccccc2c1C(=O)c1cc(Br)c(O)c(Br)c1 : -0.5% (inactive)
11) CC(C)CCNC(=O)[C@H](CC(C)C)NC(=O)[C@H]1O[C@@H]1C(=O)O : 1.5% (inactive)
12) O=C(O)/C=C/c1cccc(OCc2ccccc2)c1 : -0.9% (inactive)
13) O=c1c2[nH]c3ccccc3c2ncn1CCC1=CCCCC1 : 0.9% (inactive)

====

# TEST_SYSTEM: Beta-adrenergic receptor kinase 1 (Homo sapiens) (UniProt P25098)
# Sequence (P25098 whole entry, looked up): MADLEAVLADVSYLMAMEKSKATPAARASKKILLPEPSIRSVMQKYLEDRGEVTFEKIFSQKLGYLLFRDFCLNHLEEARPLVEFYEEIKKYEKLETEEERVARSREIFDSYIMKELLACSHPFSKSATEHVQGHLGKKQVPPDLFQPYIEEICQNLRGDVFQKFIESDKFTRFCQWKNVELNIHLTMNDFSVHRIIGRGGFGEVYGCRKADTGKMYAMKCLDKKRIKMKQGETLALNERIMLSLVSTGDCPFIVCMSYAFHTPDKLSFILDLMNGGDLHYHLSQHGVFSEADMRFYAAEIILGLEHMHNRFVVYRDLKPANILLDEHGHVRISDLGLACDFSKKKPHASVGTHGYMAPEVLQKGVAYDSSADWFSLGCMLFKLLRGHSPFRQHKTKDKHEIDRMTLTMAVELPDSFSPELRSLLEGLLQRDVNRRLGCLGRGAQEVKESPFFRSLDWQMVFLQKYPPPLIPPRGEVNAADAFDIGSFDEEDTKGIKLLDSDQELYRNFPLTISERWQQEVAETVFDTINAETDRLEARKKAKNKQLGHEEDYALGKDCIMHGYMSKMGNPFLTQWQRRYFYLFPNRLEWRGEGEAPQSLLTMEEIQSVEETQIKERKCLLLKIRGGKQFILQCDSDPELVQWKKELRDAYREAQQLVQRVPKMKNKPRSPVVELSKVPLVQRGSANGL
# EXPERIMENT_SUMMARY: GRK2 binders displacing RNA aptamer, biochemical, validation, human GRK2, bead flow cytometry (AID 488806)
# CONDITION_INFO: bead-bound GRK2, FAM-aptamer displacement, at 10 µM
Activity calls are given as the source filed them.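 The calls were made as follows: active = aptamer binding inhibition above 30%, about 3 SD of noise from non-fluorescent compounds; inactive = inhibition at or below 30%.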
Labels: Yes (active), No (inactive)

1) CCCC(C)(COC(N)=O)COC(=O)NC(C)C (stereo not drawn) : No
2) C=C1CC[C@@]2(O)[C@H]3Cc4ccc(O)c5c4[C@@]2(CCN3CC2CC2)[C@H]1O5 : No
3) O=C1C(=O)c2ccccc2-c2ccccc21 : Yes
4) CN1CC[C@@]23CCCC[C@@H]2[C@@H]1Cc1ccc(O)cc13 : No
5) CN1C[C@H](CNC(=O)OCc2ccccc2)C[C@@H]2c3cccc4c3c(cn4C)C[C@H]21 : No
6) CC12CN3CC(c4ccccc4)(CN(C1)C31CCCCC1)C2=O : No
7) OC1CCCCC1N1CCC(c2ccccc2)CC1 (stereo not drawn) : No
8) C[N+]1(C)[C@@H]2CC[C@H]1CC(OC(=O)C(CO)c1ccccc1)C2 (stereo partly drawn) : No

====

# EXPERIMENT_SUMMARY: modulators of CIT2-GFP expression in yeast, confirmation, S. cerevisiae, GFP fusion, cherry picks, mother/daughter gates (AID 2274)
# CONDITION_INFO: S. cerevisiae CIT2-GFP strain, flow cytometry, 3 h; measured here: mother cell gate; at 10 µM; stronger effect = higher value
// GFP response, % of DMSO lookup, one value per entry
PROPERTY_LABEL: GFP response, % of DMSO (%)

1) CCN(CC)c1ccc(C=C2C(=O)NC(=S)NC2=O)cc1 : 84.8
2) N#CC(C#N)=NNc1ccc(-n2ccc(C(F)(F)F)n2)cc1 : 97.1
3) CC[C@@H]1C(=O)OC[C@@H]1Cc1cncn1C : 100
4) O=C(O)c1nn(Cc2ccc(Cl)cc2Cl)c2ccccc12 : 94.4
5) COc1cc(/C=C/C(=O)c2c(O)n(CCc3ccccc3)c(=O)[nH]c2=O)ccc1O : 112
6) O=C1NC(=O)N(c2ccccc2)C(=O)/C1=C\c1ccc([N+](=O)[O-])o1 : 104

====

# System: Botulinum neurotoxin type F light chain protease (Clostridium botulinum)
# EXPERIMENT_SUMMARY: Botulinum neurotoxin type F light chain protease inhibition, multiplex microsphere flow cytometry, validation set (AID 588459)
# CONDITION_INFO: multiplex microsphere protease substrate cleavage assay, at 10 µM, stronger effect = higher value
// inhibition lookup, one value per entry
PROPERTY_LABEL: inhibition (%)

1. O=C(NCCN1CCOCC1)c1ccc(Cl)cc1 : 2.4
2. CCCCC(=O)O[C@H]1CC[C@H]2[C@@H]3CCc4cc(O)ccc4[C@H]3CC[C@]12C : 0.5
3. O=C(c1cc2cc(Br)ccc2o1)N1CCCC1 : -9.1
4. COc1ccc(OC(C)C(=O)Nc2ccc([N+](=O)[O-])cc2)cc1 (configuration not stated) : 4
5. CC(=O)CC(c1ccc([N+](=O)[O-])cc1)c1c(O)c2ccccc2oc1=O (configuration not stated) : 0.7
6. CC(C)=CCCC1=CCC2C(=O)NNC(=O)C2C1 (configuration not stated) : -1.6
7. COc1ccc2c(c1)c(CC(=O)O)c(C)n2C(=O)c1ccc(Cl)cc1 : 0.9
